Target: PgDPP7 (Porphyromonas gingivalis)
Sequence (Q7MWU6 entry or part of it): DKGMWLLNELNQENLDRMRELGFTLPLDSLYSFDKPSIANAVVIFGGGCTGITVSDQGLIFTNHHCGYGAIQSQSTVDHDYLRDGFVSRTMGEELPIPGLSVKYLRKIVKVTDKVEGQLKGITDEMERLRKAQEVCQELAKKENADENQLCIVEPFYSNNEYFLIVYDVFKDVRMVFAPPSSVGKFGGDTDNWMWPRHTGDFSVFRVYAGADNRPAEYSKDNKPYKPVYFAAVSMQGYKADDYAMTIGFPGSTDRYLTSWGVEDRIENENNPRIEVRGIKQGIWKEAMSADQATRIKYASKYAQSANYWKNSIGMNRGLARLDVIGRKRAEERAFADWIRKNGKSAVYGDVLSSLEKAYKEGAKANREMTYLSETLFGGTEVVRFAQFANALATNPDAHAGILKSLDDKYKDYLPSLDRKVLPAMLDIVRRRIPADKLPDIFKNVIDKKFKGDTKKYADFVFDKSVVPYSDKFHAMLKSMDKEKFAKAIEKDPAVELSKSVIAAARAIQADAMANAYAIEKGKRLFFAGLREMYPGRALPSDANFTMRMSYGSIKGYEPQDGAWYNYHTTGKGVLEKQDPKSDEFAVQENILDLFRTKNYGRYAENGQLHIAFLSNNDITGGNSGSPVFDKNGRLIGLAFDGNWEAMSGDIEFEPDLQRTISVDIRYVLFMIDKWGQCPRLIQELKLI
testReadout: Ki (µM)
Give the value in µM but do not write µM after it.

PgDPP7 (Porphyromonas gingivalis) data for `NCCNc1ccc([N+](=O)[O-])cc1C(=O)O` ; its Ki: 52.2

* * *

Target: PgDPP11 (Porphyromonas gingivalis, UniProt B2RID1)
Construct: signal peptide of DAP BIII (Pseudoxanthomonas mexicana WO24) (N, cleaved yes)
Sequence (B2RID1 22-720): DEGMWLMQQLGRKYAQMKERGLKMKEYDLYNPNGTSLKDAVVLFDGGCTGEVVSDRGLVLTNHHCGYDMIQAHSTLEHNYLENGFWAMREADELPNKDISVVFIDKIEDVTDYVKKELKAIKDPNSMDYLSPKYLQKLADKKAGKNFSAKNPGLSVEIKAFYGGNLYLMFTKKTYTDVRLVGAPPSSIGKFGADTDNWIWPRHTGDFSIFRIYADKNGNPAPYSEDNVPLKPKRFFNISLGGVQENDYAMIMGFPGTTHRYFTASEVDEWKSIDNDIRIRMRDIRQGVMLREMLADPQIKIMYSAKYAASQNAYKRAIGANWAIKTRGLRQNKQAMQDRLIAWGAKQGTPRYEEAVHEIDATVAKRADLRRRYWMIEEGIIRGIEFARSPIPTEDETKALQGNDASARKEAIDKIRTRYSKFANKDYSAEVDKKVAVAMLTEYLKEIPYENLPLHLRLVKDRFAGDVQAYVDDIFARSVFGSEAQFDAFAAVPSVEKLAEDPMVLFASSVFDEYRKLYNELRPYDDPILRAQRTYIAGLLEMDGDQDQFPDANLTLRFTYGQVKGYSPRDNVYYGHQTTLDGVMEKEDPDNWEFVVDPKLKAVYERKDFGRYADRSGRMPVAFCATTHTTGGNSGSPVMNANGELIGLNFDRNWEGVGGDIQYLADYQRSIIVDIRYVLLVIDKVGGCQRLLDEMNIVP
Assay: Inhibition of PgDPP11 enzymatic activity on Leu-Asp-MCA
Conditions: PgDPP11; dose-response 15.6-1000 μM; 100 µM Leu-Asp-MCA
pIC50: −log10 of the molar value.
testReadout: pIC50

// NC(=O)c1ccc(SCC(=O)O)c([N+](=O)[O-])c1 [SH-5_3] : pIC50 value = ~2.97

* * *

Biological target: SmDPP7 (Stenotrophomonas maltophilia, UniProt B4SLK2)
Sequence (B4SLK2 entry or part of it): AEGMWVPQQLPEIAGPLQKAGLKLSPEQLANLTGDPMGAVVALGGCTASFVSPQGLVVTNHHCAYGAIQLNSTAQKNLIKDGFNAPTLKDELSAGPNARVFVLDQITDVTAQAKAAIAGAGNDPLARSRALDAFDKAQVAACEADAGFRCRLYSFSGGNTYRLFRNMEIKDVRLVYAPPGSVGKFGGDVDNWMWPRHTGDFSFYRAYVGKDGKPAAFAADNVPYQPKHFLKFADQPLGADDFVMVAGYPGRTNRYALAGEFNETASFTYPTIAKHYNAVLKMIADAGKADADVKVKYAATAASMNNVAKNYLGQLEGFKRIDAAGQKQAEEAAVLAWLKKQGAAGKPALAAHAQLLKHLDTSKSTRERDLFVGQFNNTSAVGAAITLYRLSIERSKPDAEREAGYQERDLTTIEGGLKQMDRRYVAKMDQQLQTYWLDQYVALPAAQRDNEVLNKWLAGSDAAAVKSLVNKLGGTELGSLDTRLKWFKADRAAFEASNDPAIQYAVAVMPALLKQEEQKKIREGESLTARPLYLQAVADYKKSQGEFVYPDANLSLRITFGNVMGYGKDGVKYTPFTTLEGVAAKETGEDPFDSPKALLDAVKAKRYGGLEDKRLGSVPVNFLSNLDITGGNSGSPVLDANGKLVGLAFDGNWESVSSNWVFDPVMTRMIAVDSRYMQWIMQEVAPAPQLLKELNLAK
testReadout: pKi
For clarity, pKi is expressed as the negative log10 of concentration in mol/L.

SmDPP7 (Stenotrophomonas maltophilia, UniProt B4SLK2) data for `NCCNc1ccc([N+](=O)[O-])cc1C(=O)O` ; its pKi: 4.44

Cited source: paper PMC6753110
